These measurements were taken from patent US20100310640A1.

molecular target: T1, HLA-DR DRB1*0405 (human); experiment: radioligand competition, purified HLA-DR; details: remark: other sources report otherwise
T1 chain 1: not shown
T1 chain 2: not shown
MEASURE: IC50

                                     binder  observed_measurement
0  FYTLHVIKSDLVNEE [CEA.119 (peptide 9019.0114)]                 41 nM
